Property: pIC50; scope: individual compounds
tested_on: UniProt P22303
Sequence (P22303 32-614, species assumed): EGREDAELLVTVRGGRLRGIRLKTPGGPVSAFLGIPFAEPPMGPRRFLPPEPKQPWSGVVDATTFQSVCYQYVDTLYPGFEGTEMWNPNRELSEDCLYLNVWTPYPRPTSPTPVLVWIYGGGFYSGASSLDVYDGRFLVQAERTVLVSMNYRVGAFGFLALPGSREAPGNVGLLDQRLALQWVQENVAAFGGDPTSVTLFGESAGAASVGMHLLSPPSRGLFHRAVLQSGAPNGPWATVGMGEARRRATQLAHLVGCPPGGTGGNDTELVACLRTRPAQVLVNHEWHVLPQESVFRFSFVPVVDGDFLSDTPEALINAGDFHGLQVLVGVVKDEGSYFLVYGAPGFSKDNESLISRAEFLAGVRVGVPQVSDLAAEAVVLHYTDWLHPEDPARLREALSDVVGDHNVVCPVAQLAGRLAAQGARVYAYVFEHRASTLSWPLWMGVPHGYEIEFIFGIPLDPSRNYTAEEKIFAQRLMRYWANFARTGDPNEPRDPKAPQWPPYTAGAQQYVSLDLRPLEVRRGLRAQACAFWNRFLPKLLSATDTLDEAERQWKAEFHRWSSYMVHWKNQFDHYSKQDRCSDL
assay_explanation: biochemical
run_parameters: read-out: Anti ACHE IC50
pIC50: −log10 of the molar value.

Some compounds with known pIC50 results, for comparison:
compound="O=c1cc(-c2cccc(O)c2)oc2ccc3ccccc3c12 [Molecule M9, 3′-hydroxy-b-naphthoflavone]" tested_on="UniProt P22303" recorded_value="< 4.00"
compound="O=c1cc(-c2cc(O)cc(O)c2)oc2ccccc12 [Molecule M8, 3′,5′-dihydroxyflavone]" tested_on="UniProt P22303" recorded_value="< 4.00"
compound="Cc1ccc2oc(-c3cccc(O)c3)cc(=O)c2c1 [Molecule M16, 3′-hydroxy-6-methylflavone]" tested_on="UniProt P22303" recorded_value="< 4.30"
compound="Cc1ccc(-c2cc(=O)c3cc(O)ccc3o2)cc1 [Molecule M17, 6-hydroxy-4′-methylflavone]" tested_on="UniProt P22303" recorded_value="< 4.30"
compound="O=c1cc(-c2ccccc2)oc2ccc(O)cc12 [Molecule M3, 6-hydroxyflavone]" tested_on="UniProt P22303" recorded_value="< 4.00"
compound=Cc1cccc(COc2cc(O)c3c(=O)cc(-c4ccccc4)oc3c2)c1 tested_on="UniProt P22303" recorded_value="< 4.30"

For the compound shown here, COc1cccc(-c2cc(=O)c3c(O)cccc3o2)c1 [Molecule M11, 5-hydroxy-3′-methoxyflavone] , give the reported pIC50.
< 4.30

For O=c1cc(-c2cccc(O)c2)oc2cc(O)ccc12 [Molecule M13, 7,3′-dihydroxyflavone] , what is its reported pIC50?
< 4.30
